max response, negative = inhibition values, listed per item
# ASSAYED_TARGET: Serine/threonine-protein kinase PLK1 (Homo sapiens)
# EXPERIMENT: qHTS for Inhibitors of PLK1-PDB (polo-like kinase 1 - polo-box domain): Primary Screen; note: nearly all actives have a fitted effect of over 65% in size; for max response, negative = inhibition: series mostly up to about 57 µM; % is set by controls: 0 for no effect and ±100 for the full control effect
# COND: Plk1 PBD binding of FITC phosphopeptide, fluorescence polarization
Among all 360,000 compounds or so, about 10,000 (2.8%) were called active. Another 4% or so got no clear call; they are omitted. This excerpt belongs to a sample that is enriched for actives.
Unit % implied. Number only.

Previously resolved entries follow.
| MOLECULE | U | max response, negative = inhibition |
| --- | --- | --- |
| O=C1NC(c2ccc(-c3ccccc3[N+](=O)[O-])o2)C(C(=O)c2ccc(Cl)cc2)C(O)(C(F)(F)F)N1 (stereo unspecified) | % | -5.49 |
| COC(=O)c1cccc(NC(=O)c2cccc(N3C(=O)CCC3=O)c2)c1 | % | -2.1 |

Problem: Fill in max response, negative = inhibition for record O=C(NC(c1ccc(Cl)cc1)c1cnccn1)C1CCN(Cc2ccc(Cl)cc2)CC1 (stereo unspecified)
Solution: 2.32

Problem: Return value of max response, negative = inhibition for input CCOc1ccc(C2/C(=C(/O)c3ccc4c(c3)CC(C)O4)C(=O)C(=O)N2CCCn2ccnc2)cc1 (stereo unspecified) , no commentary.
Solution: -16.9

----------
# max response, negative = inhibition per entry
# ASSAYED_TARGET: Serine/threonine-protein kinase PLK1 (Homo sapiens)
# EXPERIMENT: qHTS for Inhibitors of PLK1-PDB (polo-like kinase 1 - polo-box domain): Primary Screen; note: nearly all actives have a fitted effect of over 65% in size; for max response, negative = inhibition: series mostly up to about 57 µM; % is set by controls: 0 for no effect and ±100 for the full control effect
# COND: Plk1 PBD binding of FITC phosphopeptide, fluorescence polarization
Out of some 360,000 compounds screened, about 10,000 (2.8%) were called active. Inconclusive results (about 4%) are left out. This excerpt belongs to a sample that is enriched for actives.
// note: answer is a bare numeric in %

Problem: State, for Serine/threonine-protein kinase PLK1 (Homo sapiens), measured max response, negative = inhibition of the molecule listed here: Cc1ccc(S(=O)(=O)N2C[C@@H](C)[C@]3(C2)[C@H](O)[C@H](OC(=O)NCc2ccccc2)C[C@H]2C(=O)N(c4ccccc4)C(=O)[C@H]23)cc1
Solution: -4.82

Problem: Please report the measured max response, negative = inhibition for CCCCCCCCN1C(=O)[C@H](CC(=O)NCc2cccc3ccccc23)C[C@@]2(C(=O)OC)CCCCC=C12 tested on Serine/threonine-protein kinase PLK1 (Homo sapiens).
Solution: -2.64

Problem: Name the recorded max response, negative = inhibition of CSc1ncnc2c1ncn2CCCNCc1cccs1 , assay system Serine/threonine-protein kinase PLK1 (Homo sapiens).
Solution: -6.17

----------
Let's look at some compounds and their measured Potency.
# ASSAYED_TARGET: Serine/threonine-protein kinase PLK1 (Homo sapiens)
# EXPERIMENT: qHTS for Inhibitors of PLK1-PDB (polo-like kinase 1 - polo-box domain): Primary Screen; note: nearly all actives have a fitted effect of over 65% in size; note: potency is the fitted concentration of half-maximal effect
# COND: Plk1 PBD binding of FITC phosphopeptide, fluorescence polarization
Hit rate of the full screen: of about 360,000 compounds, about 10,000 (2.8%) were called active. Not shown: some 4% with an inconclusive outcome. The sample as a whole holds a higher share of actives than the screen did.

# annotated cases, reported Potency shown
| COMPOUND | MEASURED_QUANTITY | VALUE_REPORTED |
| --- | --- | --- |
| Cc1ccc(C(=O)N2CCCC2)c(F)c1F | Potency | 21.2 µM (active) |
| O=C(c1cc(-c2ccc(F)cc2)on1)N1CCN(c2ccc(F)cc2)CC1 | Potency | 26.7 µM (active) |
| CCOC(=O)c1c(N)sc(C(C)=O)c1C | Potency | 21.2 µM (active) |

Problem: Indicate its recorded Potency; the compound in question is N#Cc1c(-c2ccccc2)nc(SCc2cccc(C(F)(F)F)c2)[nH]c1=O
Solution: 23.8 µM (active)

Problem: Tell me measured Potency for CCCCCCC(O)(CCN1CCCCC1)c1ccccc1 (configuration not stated) please.
Solution: 29.9 µM (active)

Problem: Tell me its Potency given CC(C)Oc1ccc(CC(=O)NNC(=S)Nc2ccc(Br)cc2)cc1 as the entry.
Solution: 13.4 µM (active)

Problem: Give me measured Potency, please, for this compound: O=c1cc(CO)oc(C(Nc2cccc(C(F)(F)F)c2)c2ccccn2)c1O (configuration not stated)
Solution: 26.7 µM (active)

----------
# ASSAYED_TARGET: Serine/threonine-protein kinase PLK1 (Homo sapiens) (UniProt P53350)
# Sequence (P53350 whole entry, looked up, the tested form may be a part): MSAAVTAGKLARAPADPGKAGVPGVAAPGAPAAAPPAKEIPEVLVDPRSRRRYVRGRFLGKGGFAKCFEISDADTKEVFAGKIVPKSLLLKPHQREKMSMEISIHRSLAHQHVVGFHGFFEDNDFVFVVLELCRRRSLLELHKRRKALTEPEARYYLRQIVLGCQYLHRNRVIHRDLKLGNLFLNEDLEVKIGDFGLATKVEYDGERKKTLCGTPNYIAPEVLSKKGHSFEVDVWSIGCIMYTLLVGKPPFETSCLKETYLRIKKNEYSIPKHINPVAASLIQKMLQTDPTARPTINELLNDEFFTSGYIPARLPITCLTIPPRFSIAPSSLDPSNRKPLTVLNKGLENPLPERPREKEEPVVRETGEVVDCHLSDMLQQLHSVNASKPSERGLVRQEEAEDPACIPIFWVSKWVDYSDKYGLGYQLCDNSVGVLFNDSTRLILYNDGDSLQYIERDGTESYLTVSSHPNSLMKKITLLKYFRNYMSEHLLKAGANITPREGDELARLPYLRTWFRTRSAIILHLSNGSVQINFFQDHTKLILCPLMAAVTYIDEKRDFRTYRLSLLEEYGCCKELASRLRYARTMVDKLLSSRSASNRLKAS
# EXPERIMENT: qHTS for Inhibitors of PLK1-PDB (polo-like kinase 1 - polo-box domain): Primary Screen; note: nearly all actives have a fitted effect of over 65% in size; for max response, negative = inhibition: series mostly up to about 57 µM; % is set by controls: 0 for no effect and ±100 for the full control effect
# COND: Plk1 PBD binding of FITC phosphopeptide, fluorescence polarization
The campaign covered roughly 360,000 compounds. About 10,000 (2.8%) were called active. Another 4% or so got no clear call; they are omitted. The sample as a whole holds a higher share of actives than the screen did.
Documented max response, negative = inhibition across a set of compounds
The reply should be a number in %, with the unit left off.

| COMPOUND | ASSAYED_TARGET | max response, negative = inhibition, % |
| --- | --- | --- |
| O=C(NCc1ccccc1)c1ccc(S(=O)(=O)Nc2cccc(C(F)(F)F)c2)cc1 | Serine/threonine-protein kinase PLK1 (Homo sapiens) (UniProt P53350) | -14.9 |

Problem: Check the records and state max response, negative = inhibition for Nc1nc2c(Br)ccc(Br)c2cc1C(=O)NCCc1ccccc1
Solution: -9.21

Problem: Give the reported value of max response, negative = inhibition for this record: COC(=O)C(Cc1c[nH]c2ccccc12)NC(=O)CCNC(=O)c1ccco1 (configuration not stated)
Solution: 3.99

Problem: Name the recorded max response, negative = inhibition of the compound listed here: C#CCNC(=O)C[C@@H]1C[C@@]2(C(=O)OCC)CCCC=C2N(Cc2ccco2)C1=O
Solution: -6.05

Problem: Note max response, negative = inhibition for the compound shown: CCCC(=O)N1CCC1(C)C(=O)NS(=O)(=O)c1ccc(Cl)cc1 (configuration not stated)
Solution: -0.638

Problem: Return reported max response, negative = inhibition. Input compound: O=C1c2ccccc2C(=O)N1CCCCCCN1C(=O)c2ccccc2C1=O
Solution: -2.55

Problem: Note down max response, negative = inhibition recorded for CCCS(=O)(=O)NC(=O)C1(C)CCCN(C(=O)c2cc(C)on2)C1 (configuration not stated)
Solution: -2.32

----------
# ASSAYED_TARGET: Serine/threonine-protein kinase PLK1 (Homo sapiens) (UniProt P53350)
# EXPERIMENT: qHTS for Inhibitors of PLK1-PDB (polo-like kinase 1 - polo-box domain): Primary Screen; note: nearly all actives have a fitted effect of over 65% in size; for max response, negative = inhibition: series mostly up to about 57 µM; % is set by controls: 0 for no effect and ±100 for the full control effect
# COND: Plk1 PBD binding of FITC phosphopeptide, fluorescence polarization
# Description: The polo-like kinase 1 (Plk1) is a member of a conserved subfamily of serine / threonine protein kinases that plays a pivotal roles in cell proliferation. It has a C-terminal non-catalytic region called the polo-box domain (PBD) that plays a crucial role in the subcellular localization of the Plk1. […] This project employed a fluorescence polarization (FP) assay using a FITC-conjugated phospho-9-mer (p-9-mer) peptide and purified human Plk1 PBD protein. […]
The whole screen tested about 360,000 compounds, of which about 10,000 (2.8%) were called active. Not shown: some 4% with an inconclusive outcome. For the sample, actives were picked, then their nearest neighbours and some compounds at random.
# Lookup of reported max response, negative = inhibition keyed by entry

| COMPOUND | ASSAYED_TARGET | MEASURED_QUANTITY | VALUE_REPORTED |
| --- | --- | --- | --- |
| CCOC(=O)C1C(C)C(C(C)(C)C)N(S(=O)(=O)c2ccc(C)cc2)C1c1ccccc1 (configuration not stated) | Serine/threonine-protein kinase PLK1 (Homo sapiens) (UniProt P53350) | max response, negative = inhibition | -10.1% (inactive) |
| COC(=O)c1ccccc1N=NNc1ccc([N+](=O)[O-])cc1 | Serine/threonine-protein kinase PLK1 (Homo sapiens) (UniProt P53350) | max response, negative = inhibition | 0.193% (inactive) |
| CCCc1nc2c3ccccc3ccn2c1Cc1ccccc1C(F)(F)F | Serine/threonine-protein kinase PLK1 (Homo sapiens) (UniProt P53350) | max response, negative = inhibition | -6.42% (inactive) |
| N#CCCN1CCN(S(=O)(=O)c2ccc(S(=O)(=O)N3CCCC3)cc2)CC1 | Serine/threonine-protein kinase PLK1 (Homo sapiens) (UniProt P53350) | max response, negative = inhibition | -6.31% (inactive) |

Problem: // fetch max response, negative = inhibition given entry CCCCC(O)C1=C[N+](=O)CC=C1 (configuration not stated)
Solution: -14.2% (inactive)

Problem: Please list max response, negative = inhibition recorded for the compound COc1cc(NC(=O)CSC(=S)N2CCCC2)c(OC)cc1Cl
Solution: -15.5% (inactive)

Problem: Read off the recorded max response, negative = inhibition for CCc1nc2ccc(C(=O)NCc3ccc(OC)cc3)cn2c1N(CC)Cc1cccc(Br)c1
Solution: -13.2% (inactive)

Problem: Hello, please tell me recorded max response, negative = inhibition for this one: COc1ccc(-c2cc3nc(NCCOc4ccccc4)ccn3n2)cc1
Solution: -1.91% (inactive)

Problem: Please indicate max response, negative = inhibition recorded for COc1ccc(S(=O)(=O)NCC(=O)NCc2cc(=O)n(C)c(=O)n2C)cc1F
Solution: -15.2% (inactive)

Problem: Provide one value: measured max response, negative = inhibition of COc1cccc(NC(=O)C2(C)CCN2C(=O)CCC2CCCC2)c1 (configuration not stated)
Solution: 1.49% (inactive)

Problem: Please list max response, negative = inhibition recorded for the compound CC(C)(C)NS(=O)(=O)c1ccc(NC(=O)NC2CCCCC2)cc1
Solution: -9.85% (inactive)

Problem: Indicate its recorded max response, negative = inhibition; the compound in question is COC(=O)c1cn(C(=O)c2ccc(Cl)cc2)c2ccccc12
Solution: -5.55% (inactive)

Problem: Give reported max response, negative = inhibition value for COc1c(C(=O)N2CCCC2)ccc2ccccc12
Solution: -0.934% (inactive)

Problem: Please list max response, negative = inhibition recorded for the compound CC(O)c1nc2ccccc2n1Cc1ccc([N+](=O)[O-])cc1 (configuration not stated)
Solution: -2.98% (inactive)

Problem: Give the value of max response, negative = inhibition reported for the following: Cc1ccc(C(=O)NCC(=O)NC2CC2)cc1
Solution: -13.7% (inactive)

Problem: Tell me its max response, negative = inhibition given O=C(CSc1nc2cccc(F)c2c(=O)n1-c1ccccc1)Nc1ccc2c(c1)CCC2 as the entry.
Solution: -2.85% (inactive)

Problem: # return recorded max response, negative = inhibition for input Cc1c(C#N)c(NC(=O)c2ccccc2)n(Cc2ccccc2)c1C
Solution: -4.49% (inactive)
